# System: CEM cells HIV-1 protection, formazan growth assay
# protocol.details: NCI AIDS Antiviral Assay
pEC50: −log10 of the molar value. *1 amine or outer side, *2 acyl side, *3 side chain or, on linkers, in order; H or OH if unused. Where a SMILES comes first, the peptide text is derived from it. Bridges are numbered along the chain shown (N, C = ends). Roman numbers before positions name the chains, in order. [ ]: non-standard residue; d: D form. Actinocin(9to1) = Cc1c2oc3c(C)ccc(C(=O)[*:1])c3nc-2c(C(=O)[*:2])c(N)c1=O; aThr = C[C@H](O)[C@H](N)C(=O)O; NMeV = CN[C@H](C(=O)O)C(C)C; Sar = CNCC(=O)O
Consider the following molecules and their measured pEC50 readings.

molecule=CCN(CC)c1cc2c3c(c1)CCCN3CCC2 measurement="< 4.00"
molecule="CC(C)(C)c1cc2c(O)c(c1)C(c1ccccc1)c1cc(C(C)(C)C)cc(c1O)Cc1cc(C(C)(C)C)cc(c1O)C(c1ccccc1)c1cc(C(C)(C)C)cc(c1O)C2 (configuration not stated)" measurement="< 4.30"
molecule=O=C(O)/C=C/C=C/c1ccccc1 measurement="< 3.70"
molecule="O=C(NCCCN1CCCCCC1)C(c1ccccc1)C1CCCCC1 (configuration not stated)" measurement="< 3.70"
molecule="CCOC(=O)C1c2[nH]c3ccccc3c2CCN1C(=O)c1ccco1 (configuration not stated)" measurement="< 4.11"
molecule=Cc1cccc(C)c1NC(=O)C(=O)CC(=O)c1sc(Nc2c(C)cccc2C)nc1C measurement="< 3.70"

Please supply the value of reported pEC50 for the item NC1=NC(c2ccccc2)C2=C(N1)C(=O)N(Cc1ccccc1)C2 (configuration not stated)
< 3.69

Please supply the value of reported pEC50 for the item `Cc1cc(NS(=O)(=O)c2ccc(N)cc2)no1`
< 3.70

Please supply the value of reported pEC50 for the item O=c1n(Cc2ccccc2)c2ccccc2n1CC1CS1 (configuration not stated)
< 4.34

Please supply the value of reported pEC50 for the item COC(=O)C(C)(C)C(OP1(=S)OCCN1C)=C(C)C (configuration not stated)
< 3.93

Please supply the value of reported pEC50 for the item CC12CCC(C/C1=N\NC(N)=O)C2(C)C (configuration not stated)
< 3.70

Please supply the value of reported pEC50 for the item `Cc1cc(=O)n(-c2ccccc2)c(=O)n1-c1nc2ccccc2[nH]1`
< 3.95

Please supply the value of reported pEC50 for the item `Nc1cc(N2CCOCC2)nc(=O)n1-c1ccc(Cl)cc1`
< 3.70

Please supply the value of reported pEC50 for the item CC(=O)OC1C(=O)C(O)C(C)OC1O[C@@H]1C[C@@]2(C)[C@@H]3CC=C4[C@@H](C[C@H](O)C(=O)C4(C)C)[C@]3(C)C(=O)C[C@]2(C)[C@H]1[C@@](C)(O)C(=O)/C=C/C(C)(C)O (some centres not stated)
< 6.30

Please supply the value of reported pEC50 for the item Cc1c2oc3c(C)ccc(C(=O)N[C@@H]4C(=O)N[C@H](C(C)C)C(=O)N5CCC[C@H]5C(=O)N(C)CC(=O)N(C)[C@@H](C(C)C)C(=O)O[C@H]4C)c3nc-2c(C(=O)N[C@@H]2C(=O)N[C@H](C(C)C)C(=O)N3CCC[C@H]3C(=O)N(C)CC(=O)N(C)[C@@H](C(C)C)C(=O)O[C@H]2C)c(N)c1=O (I: [aThr][dV]P[Sar][NMeV] / II: [aThr][dV]P[Sar][NMeV]; ester I:1-I:C, II:1-II:C; linker I:N-II:N via Actinocin(9to1))
< 6.52

Please supply the value of reported pEC50 for the item `O=c1cn[nH]c2cc(Cl)ccc12`
< 3.93

Please supply the value of reported pEC50 for the item `COc1cccc(/C=C/c2cnc3ccccc3n2)c1OC`
< 3.70

Please supply the value of reported pEC50 for the item `CC(=O)NCCSSCCCCS(=O)O`
< 3.70

Please supply the value of reported pEC50 for the item `Clc1cc(C(c2cc(Cl)sc2Cl)c2cc(Cl)sc2Cl)c(Cl)s1`
< 4.30

Please supply the value of reported pEC50 for the item Cc1ccc(SCC(CF)OCn2cc(F)c(=O)[nH]c2=O)cc1 (configuration not stated)
< 3.70

Please supply the value of reported pEC50 for the item CC[C@H]1C2OC(=O)[C@H](C)C2[C@@]2(O)C[C@@H]([C@@H]3C[C@H](C)C(=O)O3)N3CCCC[C@@]12C3=O (some centres not stated)
< 3.70

Please supply the value of reported pEC50 for the item `CC1=Nc2nc(=N)nc3cccc(n23)N1`
< 3.70

Please supply the value of reported pEC50 for the item `NC1=Nc2cc(C(F)(F)F)ccc2Sc2nc3ccccc3n21`
< 3.70

The values you see were collected from PubChem BioAssay AID179.
